Species on record: Homo sapiens
method.description: Selectivity ratio of Ki for human delta opioid receptor to Ki for human kappa opioid receptor
# Ratio Ki annotations
Respond numerically, and do not add a unit to the figure.

Past entries and their recorded results:
compound	Ratio Ki
OC(COc1ccc2c(c1)[C@@]13CCCC[C@H]1[C@@H](C2)N(CC1CCC1)CC3)CC(O)COc1ccc2c(c1)[C@@]13CCCC[C@H]1[C@@H](C2)N(CC1CCC1)CC3 (stereo not given in full)	194
c1cc2c(cc1OCCCOc1ccc3c(c1)[C@@]14CCCC[C@H]1[C@@H](C3)N(CC1CCC1)CC4)[C@@]13CCCC[C@H]1[C@@H](C2)N(CC1CCC1)CC3	29
c1cc2c(cc1OCCCCOc1ccc3c(c1)[C@@]14CCCC[C@H]1[C@@H](C3)N(CC1CCC1)CC4)[C@@]13CCCC[C@H]1[C@@H](C2)N(CC1CCC1)CC3	40

Asked: Suppose we examine the compound OC(CCCCCC(O)COc1ccc2c(c1)[C@@]13CCCC[C@H]1[C@@H](C2)N(CC1CCC1)CC3)COc1ccc2c(c1)[C@@]13CCCC[C@H]1[C@@H](C2)N(CC1CCC1)CC3 (stereo not given in full) ; what Ratio Ki value has been reported?
Given back: 25

Asked: Could you tell me which Ratio Ki is on file for OC(CCCCC(O)COc1ccc2c(c1)[C@@]13CCCC[C@H]1[C@@H](C2)N(CC1CCC1)CC3)COc1ccc2c(c1)[C@@]13CCCC[C@H]1[C@@H](C2)N(CC1CCC1)CC3 (stereo not given in full) ?
Given back: 23

Asked: What does the data say about its Ratio Ki? Entry: OC(CCCCCCC(O)COc1ccc2c(c1)[C@@]13CCCC[C@H]1[C@@H](C2)N(CC1CCC1)CC3)COc1ccc2c(c1)[C@@]13CCCC[C@H]1[C@@H](C2)N(CC1CCC1)CC3 (stereo not given in full)
Given back: 19

Asked: Any idea what its Ratio Ki is? The compound is CCCCCCCCCC(=O)Oc1ccc2c(c1)[C@@]13CCCC[C@H]1[C@@H](C2)N(CC1CCC1)CC3
Given back: 100

Asked: Fill in the blank: the reported Ratio Ki of OC(CCC(O)COc1ccc2c(c1)[C@@]13CCCC[C@H]1[C@@H](C2)N(CC1CCC1)CC3)COc1ccc2c(c1)[C@@]13CCCC[C@H]1[C@@H](C2)N(CC1CCC1)CC3 (stereo not given in full) is ____.
Given back: 35

Asked: Which measured Ratio Ki value corresponds to OC(CCCC(O)COc1ccc2c(c1)[C@@]13CCCC[C@H]1[C@@H](C2)N(CC1CCC1)CC3)COc1ccc2c(c1)[C@@]13CCCC[C@H]1[C@@H](C2)N(CC1CCC1)CC3 (stereo not given in full) ?
Given back: 16

Asked: Any idea what its Ratio Ki is? The compound is OC(COc1ccc2c(c1)[C@@]13CCCC[C@H]1[C@@H](C2)N(CC1CCC1)CC3)COc1ccc2c(c1)[C@@]13CCCC[C@H]1[C@@H](C2)N(CC1CCC1)CC3
Given back: 39

====

Test system Mu-type opioid receptor (Homo sapiens), pKi listed for each of the molecules.
// scale note: pKi = -log10(conc_M); give the bare number

molecule	reported.value
OC(COc1ccc2c(c1)[C@@]13CCCC[C@H]1[C@@H](C2)N(CC1CCC1)CC3)CC(O)COc1ccc2c(c1)[C@@]13CCCC[C@H]1[C@@H](C2)N(CC1CCC1)CC3 (stereo partly drawn)	8.92

Asked: Could you tell me which pKi is on file for CCCCCCCCCCOc1ccc2c(c1)[C@@]13CCCC[C@H]1[C@@H](C2)N(CC1CCC1)CC3 ?
Given back: 7.15

Asked: What value of measured pKi is listed for OC(COc1ccc2c(c1)[C@@]13CCCC[C@H]1[C@@H](C2)N(CC1CCC1)CC3)COc1ccc2c(c1)[C@@]13CCCC[C@H]1[C@@H](C2)N(CC1CCC1)CC3 ?
Given back: 9.02

Asked: Record request: pKi value, item OC(CCCCCCC(O)COc1ccc2c(c1)[C@@]13CCCC[C@H]1[C@@H](C2)N(CC1CCC1)CC3)COc1ccc2c(c1)[C@@]13CCCC[C@H]1[C@@H](C2)N(CC1CCC1)CC3 (stereo partly drawn)
Given back: 8.62

Asked: Tell me the measured pKi of OC(CCCCC(O)COc1ccc2c(c1)[C@@]13CCCC[C@H]1[C@@H](C2)N(CC1CCC1)CC3)COc1ccc2c(c1)[C@@]13CCCC[C@H]1[C@@H](C2)N(CC1CCC1)CC3 (stereo partly drawn) , please.
Given back: 8.49

Asked: Given the molecule OC(CCCCCC(O)COc1ccc2c(c1)[C@@]13CCCC[C@H]1[C@@H](C2)N(CC1CCC1)CC3)COc1ccc2c(c1)[C@@]13CCCC[C@H]1[C@@H](C2)N(CC1CCC1)CC3 (stereo partly drawn) , what is its reported pKi?
Given back: 8.32

Asked: I'd like to know its pKi. The molecule in question is OC(CCCC(O)COc1ccc2c(c1)[C@@]13CCCC[C@H]1[C@@H](C2)N(CC1CCC1)CC3)COc1ccc2c(c1)[C@@]13CCCC[C@H]1[C@@H](C2)N(CC1CCC1)CC3 (stereo partly drawn)
Given back: 7.92

Asked: Given CCCCCCCCCC(=O)Oc1ccc2c(c1)[C@@]13CCCC[C@H]1[C@@H](C2)N(CC1CCC1)CC3 , state its recorded pKi.
Given back: 9.68
